These data points were gathered from paper PMC6430017.

assay: in vitro; settings: human, microsomes
measurement-kind: half-life at 1 h, 3 µM (h)

C=CC(=O)Nc1cc2c(cc1Cl)[nH]c(=O)n2C1CCN(Cc2ccc(-c3nc4cc[nH]c(=O)c4cc3-c3ccccc3)cc2)CC1 [24a] : 1.45

====

system: T47D; assay: Cell viability assay (CellTiter-Glo); format: cell-based; conditions: Homo sapiens, T47D, 120 h, read-out: Cell viability assay EC50
measurement-kind: EC50

CC(C)NC[C@@H](C(=O)N1CCN(c2ncnc3c2[C@H](C)C[C@H]3O)CC1)c1ccc(Cl)cc1 [Ipatasertib, reference compound] : 443 nM

====

target: full-length Akt (Akt^wt) (Homo sapiens); assay: Kinetic characterization by time-dependent IC50 measurements; assay type: biochemical; conditions: from time-dependent IC50
Sequence (P31749 whole entry): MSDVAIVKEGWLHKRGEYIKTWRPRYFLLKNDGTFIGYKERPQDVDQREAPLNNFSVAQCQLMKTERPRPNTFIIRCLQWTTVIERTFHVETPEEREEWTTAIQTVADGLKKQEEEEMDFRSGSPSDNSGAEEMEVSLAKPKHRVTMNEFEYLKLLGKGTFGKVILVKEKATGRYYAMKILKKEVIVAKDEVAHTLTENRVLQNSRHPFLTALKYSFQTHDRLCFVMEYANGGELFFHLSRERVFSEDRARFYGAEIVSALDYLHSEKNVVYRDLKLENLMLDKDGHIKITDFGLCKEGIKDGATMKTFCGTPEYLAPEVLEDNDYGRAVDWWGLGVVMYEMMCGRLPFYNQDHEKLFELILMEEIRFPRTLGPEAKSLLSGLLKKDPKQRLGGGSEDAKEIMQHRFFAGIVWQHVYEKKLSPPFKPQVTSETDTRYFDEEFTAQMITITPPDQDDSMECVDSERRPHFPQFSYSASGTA
Reported kinact/KI values for a set of molecules
measurement-kind: kinact/KI (M⁻¹ s⁻¹)

C=CC(=O)Nc1ccccc1C(=O)NC1CCN(Cc2ccc(-c3nc4cc[nH]c(=O)c4cc3-c3ccccc3)cc2)CC1 [30a] : 85000
C=CC(=O)Nc1ccc2c(c1)n(C1CCN(Cc3ccc(-c4nc5cc[nH]c(=O)c5cc4-c4ccccc4)cc3)CC1)c(=O)n2C [24b] : 190000
C=CC(=O)Nc1ccc(C(=O)NC2CCN(Cc3ccc(-c4nc5cc[nH]c(=O)c5cc4-c4ccccc4)cc3)CC2)s1 [30f] : 38000
C=CC(=O)Nc1cccc(CNC2CCN(Cc3ccc(-c4nc5cc[nH]c(=O)c5cc4-c4ccccc4)cc3)CC2)c1 : 4000
C=CC(=O)Nc1ccc(C(=O)NC2CCN(Cc3ccc(-c4nc5cc[nH]c(=O)c5cc4-c4ccccc4)cc3)CC2)cc1 [30c] : 2000
C=CC(=O)Nc1ccc(C(=O)NC2CCN(Cc3ccc(-c4nc5cc[nH]c(=O)c5cc4-c4ccccc4)cc3)CC2)c(F)c1 [30d] : 14000
C=CC(=O)Nc1cc(Br)cc(C(=O)NC2CCN(Cc3ccc(-c4nc5cc[nH]c(=O)c5cc4-c4ccccc4)cc3)CC2)c1 [30e] : 168000
CN(C)C/C=C/C(=O)Nc1ccc2[nH]c(=O)n(C3CCN(Cc4ccc(-c5nc6cc[nH]c(=O)c6cc5-c5ccccc5)cc4)CC3)c2c1 [24c] : 25000

====

experiment: Phase I metabolic stability assay; conditions: human, liver microsomes
Here, each record is paired with measured microsomal CLint at 3 µM data.
measurement-kind: microsomal CLint at 3 µM (µL/min/mg)

C=CC(=O)Nc1cc(Br)cc(C(=O)NC2CCN(Cc3ccc(-c4nc5cc[nH]c(=O)c5cc4-c4ccccc4)cc3)CC2)c1 [30e] : 12
C=CC(=O)Nc1ccc2c(c1)n(C1CCN(Cc3ccc(-c4nc5cc[nH]c(=O)c5cc4-c4ccccc4)cc3)CC1)c(=O)n2C [24b] : 19
NC1(C(=O)N[C@@H](CCO)c2ccc(Cl)cc2)CCN(c2ncnc3[nH]ccc23)CC1 [Capivasertib, reference compound] : 14
NC1(c2ccc(-c3nc4ccn5c(=O)[nH]nc5c4cc3-c3ccccc3)cc2)CCC1 [MK-2206, reference compound] : 1
